# Tested on: IGROV1 ovarian
# Assay: NCI tumour cell line growth inhibition, 48 h
Please go through the items and note down their TGI.

## Task Need TGI, item CN(C)CC(O)CNC(=O)Nc1ccccc1 (stereo not drawn)
## Result > 100 µM

## Task Need TGI, item CC(=O)OCc1cc[c]([Hg][Cl])o1
## Result 10.4 µM

## Task Need TGI, item CCC(/C(=N/NC(=O)C[N+](C)(C)C)c1ccccc1)C1OC(=O)c2ccccc21 (stereo not drawn)
## Result > 100 µM

## Task Need TGI, item O=S1(=O)CC#CC[C@@H](CO)[C@@H](CO)CC#CC1
## Result > 100 µM

## Task Need TGI, item COc1cc(N2CCN(C(C)C)CC2)ccc1Nc1nc(Nc2ccc(F)cc2C(N)=O)c2cc[nH]c2n1
## Result 6.94 µM

## Task Need TGI, item O=C(NNC(=O)/C(=C/c1cccc([N+](=O)[O-])c1)NC(=O)c1ccccc1)Nc1ccc(Cl)cc1
## Result 27.4 µM

## Task Need TGI, item COc1ccc2c(c1)C(=O)CC(C(N)=O)C2 (stereo not drawn)
## Result > 100 µM

## Task Need TGI, item O=S(=O)(O)c1ccc([Se][Se]c2ccc(S(=O)(=O)O)cc2)cc1
## Result > 100 µM

## Task Need TGI, item NC(=O)C1CCCN1Cc1ccc2c(c1)OCO2 (stereo not drawn)
## Result > 100 µM

## Task Need TGI, item C#CCn1c(=O)c2cc(OC)c(OC)cc2n(CC#C)c1=O
## Result > 10 µM

## Task Need TGI, item CCOC(=O)/C(C(N)=O)=C(/O)c1cnccn1
## Result > 100 µM

## Task Need TGI, item C#CCN(Cc1ccc2nc(-c3ccccc3)c(Cl)nc2c1)c1ccc(Cl)c(Cl)c1
## Result > 100 µM

## Task Need TGI, item CCc1cc2c(cc1O)CC[C@@H]1[C@@H]2CC[C@]2(C)[C@@H](O)CC[C@@H]12
## Result 28.4 µM

## Task Need TGI, item Cc1ccccc1C1SCc2nc3ccccc3n21 (stereo not drawn)
## Result > 100 µM

## Task Need TGI, item O=C(Nc1c(Cl)cccc1Cl)Oc1cccc2cccnc12
## Result > 100 µM

## Task Need TGI, item CN1CN(c2ccccc2)C2(CCN(C(=O)OC(C)(C)C)CC2)C1=O
## Result > 100 µM

## Task Need TGI, item OCC1OC(N2CCN(C3OC(CO)C(O)C(O)C3O)CC2)C(O)C(O)C1O (stereo not drawn)
## Result > 100 µM

## Task Need TGI, item COc1ccccc1-c1nc[nH]c1-c1ccccc1OC
## Result > 100 µM
